The origin of these recorded values is ChEMBL document CHEMBL1154010.

- System: Mus musculus
- EXPERIMENT NOTES: Toxicity in ip dosed ddY mouse bearing mouse S180 cells
- Format: organism-based, CCRF S-180
- CONDITION DESCRIPTION: in vivo
READOUT TYPE: LD50 (µg/mL)
One number for each entry, in µg/mL.

CO[C@@]12[C@H](COC(N)=O)C3=C(C(=O)C(C)=C(N)C3=O)N1C[C@H]1[C@@H]2N1C (stereo not given in full) [PORFIROMYCIN]; 57
C=C1C2=C(C(=O)C(C)=C(N)C2=O)N2C[C@H]3[C@H](N3C)[C@]12O (stereo not given in full) [MITOMYCIN Z]; 210
COC1=C(C)C(=O)C2=C(C1=O)[C@@H](COC(N)=O)[C@@]1(OC)[C@@H]3[C@H](CN21)N3C (stereo not given in full) [N-METHYL-MITOMYCIN A]; 5
C=C1C2=C(C(=O)C(C)=C(OC)C2=O)N2C[C@H]3[C@H](N3C)[C@]12O (stereo not given in full) [MITOMYCIN H]; 12
COC1=C(C)C(=O)C2=C(C1=O)[C@H](COC(N)=O)[C@@]1(OC)[C@@H]3[C@H](CN21)N3C (stereo not given in full) [MITOMYCIN J]; 9
C=C1C2=C(C(=O)C(C)=C(N)C2=O)N2C[C@H]3[C@H](N3C)[C@]12OC (stereo not given in full) [MITOMYCIN K]; 22

# per-item lookup of LD50; items listed below
1. C=C1C2=C(C(=O)C(C)=C(OC)C2=O)N2C[C@H]3[C@H](N3C)[C@]12OC (stereo not given in full) [MITOMYCIN G]
2. COC1=C(C)C(=O)C2=C(C1=O)[C@@H](COC(N)=O)[C@@]1(O)[C@H]3N[C@H]3CN21 [9A-DEMETHYLMITOMYCIN A]
3. COC1=C(C)C(=O)C2=C(C1=O)[C@H](COC(N)=O)[C@@]1(O)[C@@H]3[C@H](CN21)N3C (stereo not given in full) [MITOMYCIN B]

A:
1. 130
2. 7.5
3. 4.5

Q: Any idea what its LD50 is? The compound is COC1=C(C)C(=O)C2=C(C1=O)[C@@H](COC(N)=O)[C@@]1(OC)[C@H]3N[C@H]3CN21 [MITOMYCIN A]
A: 2.1
